Source: patent US20230391772A1

studySystem: HSP90a protein (Homo sapiens, UniProt P07900)
Construct: purchased BPS Bioscience 50298
assayProtocol: HSP90α-binding fluorescent polarization (FP) assay, FITC-geldanamycin probe
measurementConditions: FP competition with FITC-geldanamycin, 5 nM, 120 min at 25° C.
readoutKind: IC50

# annotated cases, reported IC50 shown
compound | studySystem | readoutKind | reportedMeasurement
C=C(F)C(=O)N1CCN(c2nc(OC[C@@H]3CCN(C(=O)c4cc(C(C)C)c(O)cc4O)C3)nc3c2CCN(c2cccc4cccc(Cl)c24)C3)C[C@@H]1CC#N [Compound 171] | HSP90a protein (Homo sapiens, UniProt P07900) | IC50 | > 1 µM
C=C(F)C(=O)N1CCN(c2nc(N3CCC(Cc4ccc(-n5c(C(=O)NCC(F)(F)F)nnc5-c5cc(C(C)C)c(O)cc5O)cc4)CC3)nc3c2CCN(c2cccc4cccc(Cl)c24)C3)C[C@@H]1CC#N [Compound 142] | HSP90a protein (Homo sapiens, UniProt P07900) | IC50 | > 1 µM

Entry under test: C=C(F)C(=O)N1CCN(c2nc(OC[C@@H]3CCCN3C(=O)C3CCN(Cc4ccc(-n5c(O)nnc5-c5cc(C(C)C)c(O)cc5O)cc4)CC3)nc3c2CCN(c2cccc4cccc(Cl)c24)C3)C[C@@H]1CC#N [Compound 144] . Its IC50 was 0.1 to 1 µM

* * *

Below, each entry is listed with its recorded IC50.
studySystem: KRAS(G12C) (Homo sapiens, UniProt P01116, G12C)
Sequence (P01116 1-188 isoform P01116-2 G12C): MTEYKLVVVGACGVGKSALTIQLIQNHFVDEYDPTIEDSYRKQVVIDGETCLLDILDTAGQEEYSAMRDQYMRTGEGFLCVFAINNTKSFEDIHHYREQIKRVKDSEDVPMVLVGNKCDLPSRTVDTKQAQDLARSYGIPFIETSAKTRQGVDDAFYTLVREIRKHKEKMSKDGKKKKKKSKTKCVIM
assayProtocol: KRAS(G12C)/SOS1 homogeneous time-resolved fluorescence (HTRF) assay
measurementConditions: absence of GTP, 4° C. for 3 hr, read-out: KRAS (G12C) binding

Below, each entry is followed by its recorded IC50 result.
compound | studySystem | IC50
C=CC(=O)N1CCN(c2nc(OC[C@@H]3CCN(C(=O)c4cc(C(C)C)c(O)cc4O)C3)nc3c2CCN(c2cccc4cccc(Cl)c24)C3)C[C@@H]1CC#N [Compound 157] | KRAS(G12C) (Homo sapiens, UniProt P01116, G12C) | > 1000 nM
C=CC(=O)N1CCN(c2nc(OC[C@@H]3CC[C@H](CN4CCN(C(=O)C5CCN(Cc6ccc(-n7c(O)nnc7-c7cc(CC)c(O)cc7O)cc6)CC5)CC4)N3C)nc3c2CCN(c2cccc4cccc(Cl)c24)C3)C[C@@H]1CC#N [Compound 245] | KRAS(G12C) (Homo sapiens, UniProt P01116, G12C) | < 100 nM

// sample C=CC(=O)N1CCN(c2nc(OC[C@@H]3C[C@H](N4CCC(C(=O)N5CC6(CCN(Cc7ccc(-n8c(O)nnc8-c8cc(C(C)C)c(O)cc8O)cc7)CC6)C5)CC4)CN3C)nc3c2CCN(c2cccc4cccc(Cl)c24)C3)C[C@@H]1CC#N [Compound 348] , its IC50 was < 100 nM

The recorded IC50 for C=CC(=O)N1CCN(c2nc(OC[C@@H]3CCCN3C(=O)C3CCN(Cc4ccc(-n5c(O)nnc5-c5cc(C(C)C)c(O)cc5O)cc4)CC3)nc3c2CCN(c2cccc4cccc(Cl)c24)C3)C[C@@H]1CC#N [Compound 139] is > 1000 nM

* * *

studySystem: HSP90a protein (Homo sapiens)
Construct: purchased BPS Bioscience 50298
assayProtocol: HSP90α-binding fluorescent polarization (FP) assay, BODIPY-labeled RNK04010 probe
measurementConditions: FP competition with RNK04010 (BODIPY-labeled), 5 nM, 300 min at 25° C.
readoutKind: IC50

Here's what some known entries look like.
chemicalStructure | reportedMeasurement
CC(C)c1cc(-c2nnc(O)n2-c2ccc(CN3CCC(C(=O)N4CC[C@@H](COc5nc6c(c(N7CCN(C(=O)C(F)(F)F)[C@@H](CC#N)C7)n5)CCN(c5cccc7cccc(Cl)c57)C6)C4)CC3)cc2)c(O)cc1O | 100 to 1000 nM
CCc1cc(C(=O)N2Cc3ccc(CN4CCN(C(=O)CCNc5nc6c(c(N7CCN(C(C)=O)CC7)n5)CCN(c5cc(O)cc7ccccc57)C6)CC4)cc3C2)c(O)cc1O | 100 to 1000 nM
C=CC(=O)N1CCN(c2nc(OC[C@@H]3C[C@H](N4CCC5(CCN(Cc6ccc(-n7c(O)nnc7-c7cc(C)c(O)cc7O)cc6)CC5)CC4)CN3C)nc3c2CCN(c2cccc4cccc(Cl)c24)C3)C[C@@H]1CC#N | < 100 nM
C=CC(=O)N1CCN(c2nc(NCCC(=O)N3CCC(CN4CCN(Cc5ccc(-n6c(C(=O)NCC(F)(F)F)nnc6-c6cc(CC)c(O)cc6O)cc5)CC4)CC3)nc3c2CCN(c2cccc4ccccc24)C3)C[C@H]1CC#N | 100 to 1000 nM
C=CC(=O)N1CCN(c2nc(NCCC(=O)NCc3ccc(CN4CCC(Cc5ccc(-n6c(C(=O)NCC(F)(F)F)nnc6-c6cc(CC)c(O)cc6O)cc5)CC4)cc3)nc3c2CCN(c2cc(O)cc4ccccc24)C3)CC1 | 100 to 1000 nM

IC50 reading for `CC(=O)N1CCN(c2nc(NCCC(=O)N[C@H](C)c3ccc(CN4CCC(Cc5ccc(-n6c(O)nnc6-c6cc(C(C)C)c(O)cc6O)cc5)CC4)cc3)nc3c2CCN(c2cc(O)cc4ccccc24)C3)CC1` : < 100 nM

Entry under test: `C=CC(=O)N1CCN(c2nc(NCCC(=O)N3CCC(Cc4ccc(CN(C)Cc5ccc(-n6c(O)nnc6-c6cc(C(C)C)c(O)cc6O)cc5)cc4)CC3)nc3c2CCN(c2cc(O)cc4ccccc24)C3)CC1` . Its IC50 was 100 to 1000 nM

IC50 for `CCC(=O)N1CCN(c2nc(NCCC(=O)N3CCC(CN4CCN(Cc5ccc(-n6c(C(=O)NC7CC7)nnc6-c6cc(CC)c(O)cc6O)cc5)CC4)CC3)nc3c2CCN(c2cc(O)cc4ccccc24)C3)CC1` is < 100 nM
